Reduction by entry:
Tested on: Rattus norvegicus
Assay: In vivo inhibition of T stimulated prostate growth in rats was reported after oral administration at a dose 10 mg/kg/day

{"columns": ["compound", "Reduction [%]"],
 "data": [
  ["CC(C)CC(=O)[C@H]1CCC2C3CN(C)C4=CC(=O)CC[C@]4(C)C3CC[C@@]21C (some centres undefined)", 5],
  ["C[C@]12CCC(=O)C=C1NCC1C2CC[C@@]2(C)C1CC[C@@H]2C(=O)NC(c1ccc(Cl)cc1)c1ccc(Cl)cc1 (some centres undefined)", 74],
  ["C[C@]12CCC(=O)C=C1NCC1C2CC[C@@]2(C)C1CC[C@@H]2C(=O)NC(c1ccccc1)c1ccccc1 (some centres undefined)", 95],
  ["C[C@]12CCC(=O)C=C1NCC1C2CC[C@@]2(C)C1CC[C@@H]2C(=O)NC(c1ccc(F)cc1)c1ccc(F)cc1 (some centres undefined)", 90]
]}

====

Target or system UniProtKB P18405: recorded Ki listed per item.
Sequence (P18405 whole entry): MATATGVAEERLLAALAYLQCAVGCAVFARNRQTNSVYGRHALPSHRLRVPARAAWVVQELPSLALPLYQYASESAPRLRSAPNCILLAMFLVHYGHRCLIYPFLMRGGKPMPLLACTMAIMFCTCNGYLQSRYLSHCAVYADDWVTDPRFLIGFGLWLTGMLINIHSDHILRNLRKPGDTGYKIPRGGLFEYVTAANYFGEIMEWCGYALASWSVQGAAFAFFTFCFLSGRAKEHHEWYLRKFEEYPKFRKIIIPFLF

{"columns": ["molecule", "Ki"],
 "data": [
  ["CCN(CC)C(=O)[C@H]1CCC2C3CN(C(C)C)C4=CC(=O)CC[C@]4(C)C3CC[C@@]21C (some centres not stated)", "3.4 µM"],
  ["CCCN1CC2C(CC[C@@]3(C)C2CC[C@@H]3C(=O)N(CC)CC)[C@@]2(C)CCC(=O)C=C12 (some centres not stated)", "24 µM"],
  ["CCCCN1CC2C(CC[C@@]3(C)C2CC[C@@H]3C(=O)N(CC)CC)[C@@]2(C)CCC(=O)C=C12 (some centres not stated)", "7.8 µM"],
  ["CCCCCCN1CC2C(CC[C@@]3(C)C2CC[C@@H]3C(=O)N(CC)CC)[C@@]2(C)CCC(=O)C=C12 (some centres not stated)", "5.9 µM"],
  ["CCCC(=O)[C@H]1CCC2C3CNC4=CC(=O)CC[C@]4(C)C3CC[C@@]21C (some centres not stated)", "0.012 µM"],
  ["CCN(CC)C(=O)[C@H]1CCC2C3CCNC4=CC(=O)CC[C@]4(C)C3CC[C@@]21C (some centres not stated)", "1 µM"],
  ["CCCN1CC2C(CC[C@@]3(C)C2CC[C@@H]3C(=O)NC(c2ccccc2)c2ccccc2)[C@@]2(C)C=CC(=O)C=C12 (some centres not stated)", "0.34 µM"],
  ["CCN(CC)C(=O)[C@H]1CCC2C3CN(C(C)=O)C4=CC(=O)CC[C@]4(C)C3CC[C@@]21C (some centres not stated)", "40 µM"],
  ["CN1CC2C(CC[C@@]3(C)C2CC[C@@H]3C(=O)NC(C)(C)C)[C@@]2(C)CCC(=O)C=C12 (some centres not stated)", "0.087 µM"],
  ["CC(C)(C)NC(=O)[C@H]1CCC2C3CN=C4C=C(O)C5CC5[C@]4(C)C3CC[C@@]21C (some centres not stated)", "49 µM"],
  ["C[C@]12CCC(=O)C(Br)=C1NCC1C2CC[C@@]2(C)C1CC[C@@H]2C(=O)NC12CC3CC(CC(C3)C1)C2 (some centres not stated)", "0.0045 µM"],
  ["CCN(CC)C(=O)[C@H]1CCC2C3CNC4=C(C)C(=O)C=C[C@]4(C)C3CC[C@@]21C (some centres not stated)", "0.28 µM"],
  ["CC(C)c1cc(C(C)C)c(C(=O)[C@H]2CCC3C4CNC5=CC(=O)CC[C@]5(C)C4CC[C@@]32C)c(C(C)C)c1 (some centres not stated)", "0.28 µM"],
  ["CCN(CC)C(=O)[C@H]1CCC2C3CNC4=C(Br)C(=O)CC[C@]4(C)C3CC[C@@]21C (some centres not stated)", "0.097 µM"],
  ["CCN(CC)C(=O)[C@H]1CCC2C3CN(C)C4=C(C)C(=O)CC[C@]4(C)C3CC[C@@]21C (some centres not stated)", "0.082 µM"],
  ["C[C@]12CCC(=O)C=C1NCC1C2CC[C@@]2(C)C1CC[C@@H]2C(=O)c1cccc2ccccc12 (some centres not stated)", "0.015 µM"],
  ["CC1=C2NCC3C(CC[C@@]4(C)C3CC[C@@H]4C(=O)NC(C)(C)C)[C@@]2(C)CCC1=O (some centres not stated)", "0.012 µM"]
]}

====

Assay: In vitro inhibitory activity against human adrenal 3-beta hydroxy-delta 5-teroid isomerase
pKi: −log10 of the molar value.
measuredQuantity: pKi

{"columns": ["compound", "measuredQuantity", "val"],
 "data": [
  ["CC(C)c1cc(C(C)C)c(C(=O)[C@H]2CCC3C4CNC5=CC(=O)CC[C@]5(C)C4CC[C@@]32C)c(C(C)C)c1 (stereo partly drawn)", "pKi", 5.72],
  ["CCN(CC)C(=O)[C@H]1CCC2C3CN(Cc4ccccc4)C4=CC(=O)CC[C@]4(C)C3CC[C@@]21C (stereo partly drawn)", "pKi", 4.80],
  ["CCN(CC)C(=O)[C@H]1CCC2C3CNC4=C(CN(C)C)C(=O)CC[C@]4(C)C3CC[C@@]21C (stereo partly drawn)", "pKi", 5.92],
  ["C[C@]12CCC(=O)C=C1NCC1C2CC[C@@]2(C)C1CC[C@@H]2C(=O)N1CCNCC1 (stereo partly drawn)", "pKi", 6.66],
  ["CC(C)CC(=O)[C@H]1CCC2C3CNC4=CC(=O)CC[C@]4(C)C3CC[C@@]21C (stereo partly drawn)", "pKi", 8.00],
  ["CCN(CC)C(=O)[C@H]1CCC2C3CNC4=C(I)C(=O)CC[C@]4(C)C3CC[C@@]21C (stereo partly drawn)", "pKi", 7.82],
  ["C[C@]12CCC(=O)C=C1NCC1C2CC[C@@]2(C)C1CC[C@@H]2C(=O)NC(c1ccccc1)(c1ccccc1)c1ccccc1 (stereo partly drawn)", "pKi", 7.00],
  ["CN1CC2C(CC[C@@]3(C)C2CC[C@@H]3C(=O)NC23CC4CC(CC(C4)C2)C3)[C@@]2(C)C=CC(=O)C=C12 (stereo partly drawn)", "pKi", 7.21]
]}

====

Below: a set of entries, each annotated with reported bioavailability.
Assay: Bioavailability in dog (male Beagle) i.v. administration
Type: ADME, organism-based, Canis lupus familiaris
Settings: in vivo, po, in the assay text read “oral administration” for “[…]”
measuredQuantity: bioavailability (%)

{"columns": ["compound", "val"],
 "data": [
  ["CN1CC2C(CC[C@@]3(C)C2CC[C@@H]3C(=O)NC(C)(C)C)[C@@]2(C)CCC(=O)C=C12 (stereo partly drawn)", 80],
  ["CC(C)(C)NC(=O)[C@H]1CC[C@H]2[C@@H]3CC[C@H]4NC(=O)C=C[C@]4(C)[C@H]3CC[C@]12C [FINASTERIDE]", 69],
  ["C[C@]12CCC(=O)C=C1NCC1C2CC[C@@]2(C)C1CC[C@@H]2C(=O)NC(c1ccccc1)c1ccccc1 (stereo partly drawn)", 79]
]}

====

Target: UniProtKB P31213
Sequence (P31213 whole entry): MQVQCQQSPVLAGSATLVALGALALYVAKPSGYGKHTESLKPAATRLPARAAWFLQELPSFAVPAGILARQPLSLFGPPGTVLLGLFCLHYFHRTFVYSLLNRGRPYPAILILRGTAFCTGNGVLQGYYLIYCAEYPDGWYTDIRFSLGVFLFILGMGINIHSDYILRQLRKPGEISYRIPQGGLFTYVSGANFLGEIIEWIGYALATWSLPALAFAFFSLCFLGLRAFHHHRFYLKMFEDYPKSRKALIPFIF
Test: In vitro inhibitory activity against human type 2 5-alpha reductase
pIC50: −log10 of the molar value.
measuredQuantity: pIC50

{"columns": ["compound", "valueQualifier", "val"],
 "data": [
  ["C[C@]12CCC(=O)C=C1NCC1C2CC[C@@]2(C)C1CC[C@@H]2C(=O)NC(c1ccccc1)c1ccccc1 (stereo partly drawn)", ">", 10.00],
  ["CCN(CC)C(=O)[C@H]1CCC2C3CNC4=CC(=O)C(C)C[C@]4(C)C3CC[C@@]21C (stereo partly drawn)", "=", 8.47],
  ["C[C@]12C=CC(=O)C=C1NCC1C2CC[C@@]2(C)C1CC[C@@H]2C(=O)NC12CC3CC(CC(C3)C1)C2 (stereo partly drawn)", ">", 10.00],
  ["C[C@]12CCC(=O)C=C1NCC1C2CC[C@@]2(C)C1CC[C@@H]2C(=O)c1cccc2ccccc12 (stereo partly drawn)", ">", 10.00],
  ["CCN(CC)C(=O)[C@H]1CCC2C3CNC4=CC(=O)C=C[C@]4(C)C3CC[C@@]21C (stereo partly drawn)", "=", 8.46],
  ["CCN(CC)C(=O)[C@H]1CCC2C3CN(C)C4=CC(=O)C=C[C@]4(C)C3CC[C@@]21C (stereo partly drawn)", "=", 8.24],
  ["CCCCCCCCC(=O)[C@H]1CCC2C3CNC4=CC(=O)CC[C@]4(C)C3CC[C@@]21C (stereo partly drawn)", ">", 10.00],
  ["CC(C)c1cc(C(C)C)c(C(=O)[C@H]2CCC3C4CNC5=CC(=O)CC[C@]5(C)C4CC[C@@]32C)c(C(C)C)c1 (stereo partly drawn)", "=", 9.30],
  ["C[C@]12CCC(=O)C(Br)=C1NCC1C2CC[C@@]2(C)C1CC[C@@H]2C(=O)NC12CC3CC(CC(C3)C1)C2 (stereo partly drawn)", ">", 10.00],
  ["CCN(CC)C(=O)[C@H]1CCC2C3CN(C(C)C)C4=CC(=O)CC[C@]4(C)C3CC[C@@]21C (stereo partly drawn)", "=", 8.31],
  ["C[C@]12CCC(=O)C=C1NCC1C2CC[C@@]2(C)C1CC[C@@H]2C(=O)CC1CCCCC1 (stereo partly drawn)", ">", 10.00],
  ["CCN(CC)C(=O)[C@H]1CCC2C3CN(CC(=O)O)C4=CC(=O)CC[C@]4(C)C3CC[C@@]21C (stereo partly drawn)", "=", 5.82],
  ["CCN(CC)C(=O)[C@H]1CCC2C3CN(C(C)=O)C4=CC(=O)CC[C@]4(C)C3CC[C@@]21C (stereo partly drawn)", "=", 5.52],
  ["CCC1=C2NCC3C(CC[C@@]4(C)C3CC[C@@H]4C(=O)N(CC)CC)[C@@]2(C)CCC1=O (stereo partly drawn)", "=", 6.74],
  ["CC(C)(C)NC(=O)[C@H]1CC[C@H]2[C@@H]3CC=C4C=C(C(=O)O)CC[C@]4(C)[C@H]3CC[C@]12C [EPRISTERIDE]", "=", 9.74],
  ["CCN(CC)C(=O)[C@H]1CCC2C3CN(C)C4=CC(=O)CC[C@]4(C)C3CC[C@@]21C (stereo partly drawn)", "=", 8.64],
  ["CC1=C2NCC3C(CC[C@@]4(C)C3CC[C@@H]4C(=O)NC(C)(C)C)[C@@]2(C)CCC1=O (stereo partly drawn)", "=", 8.85],
  ["CN1CC2C(CC[C@@]3(C)C2CC[C@@H]3C(=O)NC23CC4CC(CC(C4)C2)C3)[C@@]2(C)CCC(=O)C(Br)=C12 (stereo partly drawn)", "=", 8.77]
]}
